- systemTested: Histamine H3 receptor (Rattus norvegicus)
- Sequence (Q9QYN8 whole entry): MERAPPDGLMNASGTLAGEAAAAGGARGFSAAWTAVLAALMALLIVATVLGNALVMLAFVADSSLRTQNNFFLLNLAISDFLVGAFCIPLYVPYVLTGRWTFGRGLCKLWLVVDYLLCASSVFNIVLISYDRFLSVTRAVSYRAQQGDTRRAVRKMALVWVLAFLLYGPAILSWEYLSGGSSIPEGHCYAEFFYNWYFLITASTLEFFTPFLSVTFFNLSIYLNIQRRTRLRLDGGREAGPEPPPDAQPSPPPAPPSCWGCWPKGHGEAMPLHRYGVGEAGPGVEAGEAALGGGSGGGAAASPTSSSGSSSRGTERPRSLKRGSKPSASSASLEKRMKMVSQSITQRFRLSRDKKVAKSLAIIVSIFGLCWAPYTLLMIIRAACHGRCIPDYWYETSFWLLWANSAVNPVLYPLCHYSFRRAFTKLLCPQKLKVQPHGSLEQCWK
- test: Binding affinity towards rat Histamine H3 receptor (For compound 11)
pKi: −log10 of the molar value.
quantityKind: pKi

# itemSmiles, numericReadout
records = [
    ("CC(=O)c1ccc(OCCCN2CC[C@H](N)C2)cc1", 6.17),
]

----------
- systemTested: UniProt P35367
- Sequence (P35367 whole entry): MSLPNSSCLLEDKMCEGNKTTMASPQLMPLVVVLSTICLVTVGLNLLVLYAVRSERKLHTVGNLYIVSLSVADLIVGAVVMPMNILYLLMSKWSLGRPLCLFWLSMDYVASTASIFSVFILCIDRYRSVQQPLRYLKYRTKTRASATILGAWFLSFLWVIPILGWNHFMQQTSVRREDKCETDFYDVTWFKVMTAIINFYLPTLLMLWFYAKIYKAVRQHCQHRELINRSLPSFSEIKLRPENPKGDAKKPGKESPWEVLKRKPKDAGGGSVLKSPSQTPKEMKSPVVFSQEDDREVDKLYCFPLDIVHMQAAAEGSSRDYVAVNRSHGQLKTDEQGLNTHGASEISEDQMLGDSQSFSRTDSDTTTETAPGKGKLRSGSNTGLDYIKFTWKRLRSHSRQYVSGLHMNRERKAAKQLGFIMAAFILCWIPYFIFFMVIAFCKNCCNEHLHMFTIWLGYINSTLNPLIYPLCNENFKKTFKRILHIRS
- test: Binding affinity to the human Histamine H1 receptor
pKi: −log10 of the molar value.
We begin with a simple list: items and their reported pKi.

# itemSmiles, pKi
rows = [
    ("CC(=O)c1ccc(OCCCN2CC[C@H](NC(=O)[C@@H](C)NC(=O)OC(C)(C)C)C2)cc1", 4.25),
    ("CC(=O)c1ccc(OCCCN2CC[C@H](NC(=O)c3csc(-c4cccnc4)n3)C2)cc1", 4.96),
    ("N#Cc1ccc(S(=O)(=O)N[C@H]2CCN(CCCOc3ccc(C(=O)C4CC4)cc3)C2)cc1", 4.70),
    ("Cc1cccc(S(=O)(=O)N[C@H]2CCN(CCCOc3ccc(C(=O)C4CC4)cc3)C2)c1", 5.18),
    ("O=C(c1ccc(OCCCN2CC[C@H](NS(=O)(=O)c3ccccc3Cl)C2)cc1)C1CC1", 5.35),
    ("O=C(c1ccc(OCCCN2CC[C@H](NS(=O)(=O)c3cccc(Cl)c3)C2)cc1)C1CC1", 5.44),
    ("CC(=O)c1ccc(OCCCN2CC[C@H](N)C2)cc1", 4.05),
    ("CC(=O)c1ccc(OCCCN2CC[C@H](NC(=O)c3cccnc3)C2)cc1", 5.13),
    ("CC(=O)c1ccc(OCCCN2CC[C@H](NC(=O)c3ccc(C#N)cc3)C2)cc1", 4.89),
    ("O=C(N[C@H]1CCN(CCCOc2ccc(C(=O)C3CC3)cc2)C1)c1csc(-c2cccnc2)n1", 4.43),
    ("O=C(c1ccc(OCCCN2CC[C@H](NS(=O)(=O)c3ccccc3)C2)cc1)C1CC1", 5.04),
    ("Cc1ccccc1S(=O)(=O)N[C@H]1CCN(CCCOc2ccc(C(=O)C3CC3)cc2)C1", 4.80),
    ("CC(=O)c1ccc(OCCCN2CC[C@H](NS(=O)(=O)c3ccc(C#N)cc3)C2)cc1", 4.85),
    ("CC(=O)c1ccc(OCCCN2CC[C@H](NC(=O)[C@@H](CO)NC(=O)OC(C)(C)C)C2)cc1", 4.10),
    ("O=C(c1ccc(OCCCN2CC[C@H](NS(=O)(=O)c3ccc(Cl)cc3)C2)cc1)C1CC1", 5.60),
    ("CC(=O)c1ccc(OCCCN2CC[C@H](NC(=O)[C@H](CO)NC(=O)OC(C)(C)C)C2)cc1", 4.12),
    ("Cn1cnc(S(=O)(=O)N[C@H]2CCN(CCCOc3ccc(C(=O)C4CC4)cc3)C2)c1", 4.04),
    ("CC(=O)c1ccc(OCCCN2CC[C@H](NC(=O)c3cnccn3)C2)cc1", 5.00),
    ("O=C(c1ccc(OCCCN2CC[C@H](NS(=O)(=O)c3ccc(F)cc3)C2)cc1)C1CC1", 5.04),
]

----------
- systemTested: UniProt:Q9QYN8
- test: Binding affinity against rat histamine H3 receptor
pKi: −log10 of the molar value.
Mark not satisfied for pKi values under 8, and satisfied for everything at or above.

# itemSmiles, classLabel
rows = [
    ("CC(C)(C)OC(=O)NCCC(=O)N1C[C@@H]2C[C@H]1CN2CCCOc1ccc(C(=O)C2CC2)cc1", "not satisfied"),
    ("O=C(c1ccc(OCCCN2CC[C@H](NS(=O)(=O)c3ccc(F)cc3)C2)cc1)C1CC1", "satisfied"),
    ("CC(=O)c1ccc(OCCCN2CC[C@H](NC(=O)c3cnccn3)C2)cc1", "not satisfied"),
    ("CCS(=O)(=O)N1C[C@@H]2C[C@H]1CN2CCCOc1ccc(C(=O)C2CC2)cc1", "not satisfied"),
    ("CC(=O)c1ccc(OCCCN2CC[C@H](NC(=O)[C@@H](C)NC(=O)OC(C)(C)C)C2)cc1", "not satisfied"),
    ("O=C(N[C@H]1CCN(CCCOc2ccc(C(=O)C3CC3)cc2)C1)c1csc(-c2cccnc2)n1", "not satisfied"),
    ("O=C(c1ccc(OCCCN2CC[C@H](NS(=O)(=O)c3ccccc3)C2)cc1)C1CC1", "satisfied"),
]

----------
We begin with a simple list: items and their reported Ki.
- systemTested: Histamine H2 receptor (Homo sapiens)
- Sequence (P25021 whole entry): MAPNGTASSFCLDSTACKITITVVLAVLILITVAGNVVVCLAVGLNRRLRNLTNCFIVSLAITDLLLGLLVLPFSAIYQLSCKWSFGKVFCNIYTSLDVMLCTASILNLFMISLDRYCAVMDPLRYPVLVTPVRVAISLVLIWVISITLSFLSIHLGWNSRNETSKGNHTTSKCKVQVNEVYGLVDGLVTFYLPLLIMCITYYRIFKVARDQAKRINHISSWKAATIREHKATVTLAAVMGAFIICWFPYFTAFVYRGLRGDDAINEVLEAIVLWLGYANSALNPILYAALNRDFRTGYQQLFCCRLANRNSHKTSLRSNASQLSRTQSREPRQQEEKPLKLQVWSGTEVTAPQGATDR
- test: Binding affinity to the human Histamine H2 receptor

# itemSmiles, Ki [nM]
rows = [
    ("O=C(c1ccc(OCCCN2CC[C@H](NS(=O)(=O)c3cccc(Cl)c3)C2)cc1)C1CC1", 700),
    ("O=C(c1ccc(OCCCN2CC[C@H](NS(=O)(=O)c3ccccc3Cl)C2)cc1)C1CC1", 1000),
    ("O=C(c1ccc(OCCCN2CC[C@H](NS(=O)(=O)c3ccc(F)cc3)C2)cc1)C1CC1", 500),
    ("N#Cc1ccc(S(=O)(=O)N[C@H]2CCN(CCCOc3ccc(C(=O)C4CC4)cc3)C2)cc1", 1600),
    ("O=C(c1ccc(OCCCN2CC[C@H](NS(=O)(=O)c3ccc(Cl)cc3)C2)cc1)C1CC1", 290),
    ("Cn1cnc(S(=O)(=O)N[C@H]2CCN(CCCOc3ccc(C(=O)C4CC4)cc3)C2)c1", 7100),
    ("O=C(N[C@H]1CCN(CCCOc2ccc(C(=O)C3CC3)cc2)C1)c1csc(-c2cccnc2)n1", 4000),
    ("COc1ccc(S(=O)(=O)N[C@H]2CCN(CCCOc3ccc(C(=O)C4CC4)cc3)C2)cc1", 1000),
    ("O=C(c1ccc(OCCCN2CC[C@H](NS(=O)(=O)c3ccc(Br)cc3)C2)cc1)C1CC1", 290),
    ("CC(=O)c1ccc(OCCCN2CC[C@H](NC(=O)[C@@H](C)NC(=O)OC(C)(C)C)C2)cc1", 40000),
    ("Cc1cccc(S(=O)(=O)N[C@H]2CCN(CCCOc3ccc(C(=O)C4CC4)cc3)C2)c1", 1800),
    ("Cc1ccc(S(=O)(=O)N[C@H]2CCN(CCCOc3ccc(C(=O)C4CC4)cc3)C2)cc1", 380),
    ("CC(=O)c1ccc(OCCCN2CC[C@H](NC(=O)[C@@H](CO)NC(=O)OC(C)(C)C)C2)cc1", 100000),
]
